- Tested on: wheat, winter (winter wheat, Triticum aestivum)
- measurement.notes: Test D controlled growth environment herbicide test, pre- and postemergence
- Format: in vivo
- test.settings: Preemergence, 250 g ai/ha; scale 0 to 100, 0 no effect, 100 complete control
- Text: […]
metric: Plant response rating, Wheat, Winter

- substance.smiles: "Cc1nn(C)c(=O)c(-c2ccc(Br)c3ccccc23)c1O"
  Plant response rating, Wheat, Winter: 15
- substance.smiles: "Cc1ccc2ccccc2c1-c1c(OC(=O)OC(C)C)c(C)nn(C)c1=O"
  Plant response rating, Wheat, Winter: 45
- substance.smiles: "Cn1nc(Br)c(O)c(-c2cccc3ccccc23)c1=O"
  Plant response rating, Wheat, Winter: 25

Let us examine a further case.
Req: Requested read-out Plant response rating, Wheat, Winter, target or system wheat, winter (winter wheat, Triticum aestivum), entry CCc1sc2ccc(C)cc2c1-c1c(O)c(C)nn(C)c1=O
Resp: 10

---

Reported Plant response rating, Horseweed is given for each of the following molecules.
- Tested on: horseweed (Conyza canadensis)
- measurement.notes: Test E greenhouse herbicide test, pre- and postemergence
- Assay type: in vivo
- test.settings: 125 g ai/ha, Postemergence; scale 0 to 100 (0 no effect, 100 complete control)
The answer should be written as a number, with no unit following it.

- substance.smiles: "CCc1sc2c(C)cc(C)cc2c1-c1c(O)c(C)nn(C)c1=O"
  measured.on: "horseweed (Conyza canadensis)"
  Plant response rating, Horseweed: 75
- substance.smiles: "Cc1ccc2sc(C)c(-c3c(OC(=O)OC(C)C)c(C)nn(C)c3=O)c2c1"
  measured.on: "horseweed (Conyza canadensis)"
  Plant response rating, Horseweed: 90
- substance.smiles: "Cc1nn(C)c(=O)c(-c2cccc3ccc(Br)cc23)c1O"
  measured.on: "horseweed (Conyza canadensis)"
  Plant response rating, Horseweed: 85

Let us examine a further case.
Req: Consider the molecule shown here: Cc1cc2ccccc2c(-c2c(O)c(C)nn(C)c2=O)c1C What is its recorded Plant response rating, Horseweed?
Resp: 80

---

- Test system: mustard, wild (wild mustard, Sinapis arvensis)
- measurement.notes: Test D controlled growth environment herbicide test, pre- and postemergence
- Format: in vivo
- test.settings: Preemergence, 62 g ai/ha; scale 0 to 100 (0 no effect, 100 complete control)
Reported Plant response rating, Mustard, Wild is given for each of the following molecules.
The answer should be written as a number, with no unit following it.

- substance.smiles: "Cc1ccc2sc(Br)c(-c3c(O)c(C)nn(C)c3=O)c2c1"
  metric: "Plant response rating, Mustard, Wild"
  reported.result: 15
- substance.smiles: "CCc1sc2c(C)cc(C)cc2c1-c1c(O)c(C)nn(C)c1=O"
  metric: "Plant response rating, Mustard, Wild"
  reported.result: 25
- substance.smiles: "Cc1ccc2ccccc2c1-c1c(OC(=O)OC(C)C)c(C)nn(C)c1=O"
  metric: "Plant response rating, Mustard, Wild"
  reported.result: 25

Req: Consider the molecule shown here: Cc1cc(C)c2sc(C)c(-c3c(O)c(C)nn(C)c3=O)c2c1 What is its recorded Plant response rating, Mustard, Wild?
Resp: 0

Req: Same question, Cc1nn(C)c(=O)c(-c2c(C)sc3ccc(Br)cc23)c1O this time
Resp: 65

Req: Same question, CCc1sc2ccc(C)cc2c1-c1c(O)c(C)nn(C)c1=O this time
Resp: 20

Req: Same question, Cc1nn(C)c(=O)c(-c2c(C)sc3c(C)cc(Cl)cc23)c1O this time
Resp: 100

---

Reported Plant response rating, Blackgrass is given for each of the following molecules.
- System: blackgrass (Alopecurus myosuroides)
- measurement.notes: Test C greenhouse herbicide test, pre- and postemergence
- Assay type: in vivo
- test.settings: Preemergence, 125 g ai/ha; scale 0 to 100, 0 is no effect, 100 is complete control
- Source text: […]
The answer should be written as a number, with no unit following it.

- molecule: "Cc1ccc2sc(Br)c(-c3c(O)c(C)nn(C)c3=O)c2c1 [Compound 79]"
  reported.result: 60

Req: Requested read-out Plant response rating, Blackgrass, target or system blackgrass (Alopecurus myosuroides), entry Cc1nn(C)c(=O)c(-c2c(C)sc3ccc(Br)cc23)c1O [Compound 22]
Resp: 40

Req: Same question, CCc1ccc2ccccc2c1-c1c(O)c(C)nn(C)c1=O [Compound 32] this time
Resp: 90

---

- Tested on: speedwell (bird's-eye speedwell, Veronica persica)
- measurement.notes: Test D controlled growth environment herbicide test, pre- and postemergence
- Assay type: in vivo
- test.settings: Postemergence, 125 g ai/ha; visual rating on scale 0 (no effect) to 100 (complete control), 14 to 21 d
Please note: T applies when Plant response rating, Speedwell is 60 or greater, and F applies otherwise.

Previously resolved entries follow.
- compound: "Cc1cc2ccccc2c(-c2c(O)c(C)nn(C)c2=O)c1C [Compound 34]"
  discrete.label: "T"
- compound: "CCc1sc2c(C)cc(C)cc2c1-c1c(O)c(C)nn(C)c1=O [Compound 57]"
  discrete.label: "F"
- compound: "COC(=O)Oc1c(C)nn(C)c(=O)c1-c1c(C)sc2ccc(C)cc12 [Compound 80]"
  discrete.label: "T"
- compound: "CCCC(=O)Oc1c(C)nn(C)c(=O)c1-c1c(C)sc2ccc(C)cc12 [Compound 105]"
  discrete.label: "T"

Could you now look at the following compound, please?
Req: Form field: Plant response rating, Speedwell at least 60? Entry: Cc1ccc2ccccc2c1-c1c(O)c(Br)nn(C)c1=O [Compound 23]
Resp: T

---

- Test system: dayflower (Virginia (VA) dayflower, Commelina virginica)
- measurement.notes: Test E greenhouse herbicide test, pre- and postemergence
- Format: in vivo
- test.settings: 250 g ai/ha, Postemergence; scale 0 to 100 (0 no effect, 100 complete control)
metric: Plant response rating, Dayflower, VA
The answer should be written as a number, with no unit following it.

- substance.smiles: "Cc1nn(C)c(=O)c(-c2ccc(F)c3ccccc23)c1O"
  Plant response rating, Dayflower, VA: 90

Req: Requested read-out Plant response rating, Dayflower, VA, target or system dayflower (Virginia (VA) dayflower, Commelina virginica), entry Cc1nn(C)c(=O)c(-c2cccc3ccc(Br)cc23)c1O
Resp: 50

Req: Same question, Cn1nc(Br)c(O)c(-c2cccc3ccccc23)c1=O this time
Resp: 50

Req: Same question, Cc1cc2ccccc2c(-c2c(O)c(C)nn(C)c2=O)c1C this time
Resp: 90

Req: Same question, Cc1ccc2ccccc2c1-c1c(OC(=O)OC(C)C)c(C)nn(C)c1=O this time
Resp: 80

Req: Same question, CCc1sc2ccc(C)cc2c1-c1c(O)c(C)nn(C)c1=O this time
Resp: 10

---

- Test system: blackgrass (Alopecurus myosuroides)
- measurement.notes: Test C greenhouse herbicide test, pre- and postemergence
- Assay type: in vivo
- test.settings: Postemergence, 250 g ai/ha; scale 0 to 100, 0 no effect, 100 complete control; 13 to 15 d
Please note: 1.0 applies when Plant response rating, Blackgrass is 20 or greater, and 0.0 applies otherwise.

Previously resolved entries follow.
- compound: "Cc1ccc2ccccc2c1-c1c(O)c(Br)nn(C)c1=O [Compound 23]"
  measured.on: "blackgrass (Alopecurus myosuroides)"
  discrete.label: 1.0
- compound: "Cc1nn(C)c(=O)c(-c2ccc(F)c3ccccc23)c1O [Compound 41]"
  measured.on: "blackgrass (Alopecurus myosuroides)"
  discrete.label: 1.0
- compound: "Cc1nn(C)c(=O)c(-c2ccc(Cl)c3ccccc23)c1O [Compound 139]"
  measured.on: "blackgrass (Alopecurus myosuroides)"
  discrete.label: 0.0
- compound: "Cc1sc2ccccc2c1-c1c(O)c(Cl)nn(C)c1=O [Compound 89]"
  measured.on: "blackgrass (Alopecurus myosuroides)"
  discrete.label: 0.0
- compound: "Cc1ccc2sc(C)c(-c3c(OC(=O)OC(C)C)c(C)nn(C)c3=O)c2c1 [Compound 66]"
  measured.on: "blackgrass (Alopecurus myosuroides)"
  discrete.label: 1.0

Could you now look at the following compound, please?
Req: Form field: Plant response rating, Blackgrass at least 20? Entry: Cc1nn(C)c(=O)c(-c2cccc3ccc(Br)cc23)c1O [Compound 126]
Resp: 1.0

---

- Tested on: oat, wild (wild oat, Avena fatua)
- measurement.notes: Test C greenhouse herbicide test, postemergence
- Assay type: in vivo
- test.settings: postemergence, 62 g ai/ha; scale 0 to 100, 0 no effect, 100 complete control
Rule: Oat, Wild plant response rating below 80 gives Met. Equal to or above 80 gives Not met.

Previously resolved entries follow.
- compound: "Cc1ccc2ccccc2c1-c1c(OC(=O)OC(C)C)c(C)nn(C)c1=O [Compound 72]"
  measured.on: "oat, wild (wild oat, Avena fatua)"
  discrete.label: "Not met"
- compound: "CCc1oc2ccc(C)cc2c1-c1c(O)c(C)nn(C)c1=O [Compound 10]"
  measured.on: "oat, wild (wild oat, Avena fatua)"
  discrete.label: "Met"
- compound: "COC(=O)Oc1cnn(C)c(=O)c1-c1c(C)sc2ccccc12 [Compound 97]"
  measured.on: "oat, wild (wild oat, Avena fatua)"
  discrete.label: "Met"
- compound: "CCC(=O)Oc1c(C)nn(C)c(=O)c1-c1c(C)ccc2ccccc12 [Compound 78]"
  measured.on: "oat, wild (wild oat, Avena fatua)"
  discrete.label: "Met"
- compound: "CCc1ccc2ccccc2c1-c1c(O)c(C)nn(C)c1=O [Compound 32]"
  measured.on: "oat, wild (wild oat, Avena fatua)"
  discrete.label: "Not met"

Could you now look at the following compound, please?
Req: I'd appreciate it if you could check whether CCc1sc2c(C)cc(C)cc2c1-c1c(O)c(C)nn(C)c1=O [Compound 57] has Oat, Wild plant response rating smaller than 80.
Resp: Met
